B1: RSPH3 (parent)
chain: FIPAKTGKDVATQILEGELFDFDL

Variants of: B1
assay_summary: protein stability index of a GFP-peptide fusion (GPS, HEK-293T) (PSI 1-6); higher = more stable;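 also: lentivirally expressed fusions sorted by FACS into six bins by GFP to DsRed ratio, PSI derived from sequencing read proportions per bin multiplied by bin number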
condition_label: c terminus: a fixed tail appended
Binary classification by protein stability index, with 2 as an inclusive lower bound for yes; all other cases are no.

Q13A no

// query Is protein stability index at least 2? Consider T6G
// result yes

// query Reported protein stability index at or above 2? T6F
// result yes

// query Kindly determine if protein stability index recorded for T6K is above or exactly 2.
// result yes

// query Does I2C have a reported protein stability index of at least 2?
// result no

// query Please indicate if the recorded protein stability index for G7T meets or exceeds 2.
// result no
